The origin of these recorded values is patent US8759342B2.

target: Human UII receptors (Homo sapiens); construct: host or cells: Human Skeletal Muscle Myoblasts (HSMM), intact adherent cells; test: Human radioligand binding assay, (125I)-U-II on HSMM; details: 0.150 nM (125I)-U-II, intact Human Skeletal Muscle Myoblasts, 3 hrs, 25° C.; read-out: Ki
Sequence (Q9UKP6 whole entry): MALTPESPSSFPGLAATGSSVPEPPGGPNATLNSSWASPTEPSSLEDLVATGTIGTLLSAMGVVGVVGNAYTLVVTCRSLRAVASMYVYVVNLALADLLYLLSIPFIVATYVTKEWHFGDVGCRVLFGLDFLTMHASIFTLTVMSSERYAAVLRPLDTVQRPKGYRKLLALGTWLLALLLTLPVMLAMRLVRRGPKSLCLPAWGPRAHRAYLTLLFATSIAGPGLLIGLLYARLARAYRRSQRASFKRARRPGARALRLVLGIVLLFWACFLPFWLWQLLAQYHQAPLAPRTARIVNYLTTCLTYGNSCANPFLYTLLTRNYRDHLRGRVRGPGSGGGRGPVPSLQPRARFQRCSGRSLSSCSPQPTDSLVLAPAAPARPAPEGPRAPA
result.type: log10 of Ki (log10 of the value in nM)

compound	result.type	assay.value
CC(C)(C)OC(=O)NCCCCCCNC(=O)c1cc(Cl)ccc1C1CCN(CCN2C(=O)COc3ccccc32)CC1	log10 of Ki	2.00
O=C(NCCc1ccc2ccccc2c1)c1ccccc1C1CCN(CCN2C(=O)COc3ccccc32)CC1	log10 of Ki	2.86
O=C(NCCNC(=O)c1ccccc1C1CCN(CCN2C(=O)COc3ccccc32)CC1)Nc1cccc2ccccc12	log10 of Ki	2.92
O=C(NCCCCCNC(=O)c1cc(Cl)ccc1C1CCN(CCN2C(=O)COc3ccccc32)CC1)NCCc1ccccc1	log10 of Ki	2.08
CC(C)(C)OC(=O)N1CCC(CCNC(=O)c2cc(Cl)ccc2C2CCN(CCN3C(=O)COc4ccccc43)CC2)CC1	log10 of Ki	1.67
O=C(NCCc1ccc(Br)cc1)c1ccccc1C1CCN(CCN2C(=O)COc3ccccc32)CC1	log10 of Ki	2.79
CC(C)(C)OC(=O)NCCCCCNC(=O)c1cc(Cl)ccc1C1CCN(CCN2C(=O)COc3ccccc32)CC1	log10 of Ki	1.40
CC(C)(C)OC(=O)N1CCN(CCNC(=O)c2ccccc2C2CC3CCC(C2)N3CCN2C(=O)COc3ccccc32)CC1 (stereo not drawn)	log10 of Ki	3.15
CC(CN1C(=O)COc2ccccc21)N1CCC(c2ccc(Cl)cc2C(=O)NCC2CCN(S(=O)(=O)Cc3ccccc3)CC2)CC1 (stereo not drawn)	log10 of Ki	2.32
O=C(NCC1CCN(C(=O)OCc2ccccc2)CC1)c1cc(Cl)ccc1C1CCN(CCN2C(=O)COc3ccccc32)CC1	log10 of Ki	1.73
O=C(NCC1CCN(C(=O)NCc2ccccc2)CC1)c1cc(Cl)ccc1C1CCN(CCN2C(=O)COc3ccccc32)CC1	log10 of Ki	1.48
CC(C)(C)OC(=O)NCCCCNC(=O)c1ccccc1C1CCN(CCN2C(=O)COc3ccccc32)CC1	log10 of Ki	2.77
